Origin of the recorded values: paper PMC11742723

experiment: In vitro permeability assay in Caco-2 monolayers; details: human, Caco-2
QUANTITY MEASURED: Papp at 120 min, 4 µg/mL (nm/s)

> print(dat)
                                   molecule  measurement
1  C[C@H]1COC2(CCN(c3nc(=O)c4cc(C(F)(F)F)cc([N+](=O)[O-])c4s3)CC2)O1 [BTZ-043]          113

---

Experiment: LCM coupled LC-MS/MS of necrotic granulomas and non-necrotic regions
Assay type: in vivo, IL-13tg mice
Conditions: IL-13tg, mouse, oral, 250 mg/kg, LCM flakes from adjacent area (non necrotic), 4h post administration; read-out: ng/mg lung tissue, technical replicate 1
Method: Necrotic granulomas and non-necrotic regions were dissected from 2 to 3 γ−irradiated serial lung cryosections (thickness: 12 µm) using a PALM Microbeam (Zeiss, Oberkochen, Germany). Laser-dissected tissues were captured in an ascorbic acid solution (2.5 mg/mL) to prevent the degradation of BTZ-043 and stored at -80 °C. […] As internal standard d4-BTZ-043 was utilized, with the m/z-transitions 436.0 → 86.0 (cone voltage of 30 V, collision energy of 30 eV, dwell time of 0.2 s) as quantifier. […]
QUANTITY MEASURED: concentration at 4 h

> print(dat)
                                   compound  measurement
1  C[C@H]1COC2(CCN(c3nc(=O)c4cc(C(F)(F)F)cc([N+](=O)[O-])c4s3)CC2)O1 [BTZ-043]     388 ng/g

---

experiment: LCM coupled LC-MS/MS of necrotic granulomas and non-necrotic regions; format: in vivo, IL-13tg mice; details: IL-13tg, mouse, lung, laser-dissected necrotic granuloma, oral, 250 mg/kg, LCM flakes from granulome area (granuloma), mean of 2 technical replicates, 4h post administration; read-out: ng/mg lung tissue, Mean
QUANTITY MEASURED: concentration at 4 h

> print(dat)
                                 smiles.str  measurement
1  C[C@H]1COC2(CCN(c3nc(=O)c4cc(C(F)(F)F)cc([N+](=O)[O-])c4s3)CC2)O1     430 ng/g

---

experiment: in vivo; details: male, IL-13tg, mouse, lung cryosection, oral, 250 mg/kg
QUANTITY MEASURED: concentration at 2 h (ng/g)

> print(dat)
                                   molecule  measurement
1  C[C@H]1COC2(CCN(c3nc(=O)c4cc(C(F)(F)F)cc([N+](=O)[O-])c4s3)CC2)O1 [BTZ-043]          950

---

experiment: In vitro permeability assay in Caco-2 monolayers; settings: human, Caco-2
QUANTITY MEASURED: efflux ratio at 120 min, 40 µg/mL

> print(dat)
                             compound  measurement
1  NC(=O)c1cnccn1 [PZA, pyrazinamide]         0.57

---

assay: in vitro; settings: human, Caco-2, Mean Papp
QUANTITY MEASURED: Papp at 120 min, 1 µg/mL (×10⁻⁶ cm/s)

> print(dat)
                                 smiles.str  readout.units  measurement
1  C[C@H]1COC2(CCN(c3nc(=O)c4cc(C(F)(F)F)cc([N+](=O)[O-])c4s3)CC2)O1     ×10⁻⁶ cm/s         9.44
